assay_system: M-phase inducer phosphatase 2 (Homo sapiens, UniProt P30305)
Sequence (P30305 whole entry): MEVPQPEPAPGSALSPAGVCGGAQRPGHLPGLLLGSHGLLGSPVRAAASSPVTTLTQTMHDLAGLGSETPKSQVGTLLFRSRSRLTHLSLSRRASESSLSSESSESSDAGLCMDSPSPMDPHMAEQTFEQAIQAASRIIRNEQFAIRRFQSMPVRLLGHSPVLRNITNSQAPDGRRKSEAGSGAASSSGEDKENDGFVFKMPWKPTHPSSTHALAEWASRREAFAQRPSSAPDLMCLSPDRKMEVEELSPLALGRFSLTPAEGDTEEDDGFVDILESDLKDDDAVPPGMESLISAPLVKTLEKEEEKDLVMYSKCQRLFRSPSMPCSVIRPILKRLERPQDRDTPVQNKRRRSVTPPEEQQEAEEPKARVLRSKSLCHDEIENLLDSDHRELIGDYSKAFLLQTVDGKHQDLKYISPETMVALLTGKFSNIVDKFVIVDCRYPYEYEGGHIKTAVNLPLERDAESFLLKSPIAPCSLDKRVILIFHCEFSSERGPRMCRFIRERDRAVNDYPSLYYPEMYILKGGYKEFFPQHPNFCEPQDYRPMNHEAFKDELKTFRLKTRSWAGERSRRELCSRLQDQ
A compilation of pIC50 values for M-phase inducer phosphatase 2 (Homo sapiens, UniProt P30305) from the published literature.
In plain terms, pIC50 is the concentration in mol/L turned into minus its base-10 logarithm.

// below: answered compounds
{"compound": "CC(C)(C)OC(=O)N[C@@H](COCc1cn([C@@H]2O[C@H](COCc3ccccc3)[C@@H](OCc3ccccc3)[C@H](OCc3ccccc3)[C@H]2OCc2ccccc2)nn1)C(=O)O", "pIC50": 5.21}
{"compound": "O=C(O)[C@@H]1Cc2cc(I)c(OCc3ccccc3F)c(I)c2CN1C(=O)/C=C/c1ccc(Cl)c(Cl)c1", "pIC50": 4.12}
{"compound": "O=C1N=C(Nc2ccc(F)cc2)S/C1=C\\c1cccs1", "pIC50": 5.05}

The measured pIC50 associated with CCCCCCCCCCCCCCCC(=O)C1=C(O)[C@@H](COC(=O)N=C=NC(=O)OCC)OC1=O reads 6.40

The measured pIC50 associated with COc1cccc(COc2c(I)cc3c(c2I)CN(C(=O)/C=C/c2ccc(C)cc2)[C@H](C(=O)O)C3)c1 reads 4.21

The measured pIC50 associated with COc1cccc(C(=O)Nc2nnc(-c3ccc(Oc4ccc([N+](=O)[O-])cc4[N+](=O)[O-])cc3)s2)c1 reads 5.08

* * *

A compilation of pIC50 values for UniProt P30305 from the published literature.
In plain terms, pIC50 is the concentration in mol/L turned into minus its base-10 logarithm.

{"molecule": "O=C(COc1c(I)cc2c(c1I)CN(C(=O)/C=C/c1ccc(Cl)cc1Cl)[C@H](C(=O)O)C2)OCc1ccccc1", "pIC50": 4.55}
{"molecule": "C=C(C)CCC[C@@]1(C)CCC[C@H]2C1=CC[C@H](C)[C@]2(C)C[C@H](O)C1=CC(=O)O[C@@H]1O (stereo in doubt)", "pIC50": 4.72}
{"molecule": "CC1=C(SCCO)C(=O)c2ccccc2C1=O", "pIC50": 4.63}
{"molecule": "O=C(O)[C@@H]1Cc2cc(I)c(OCc3ccc(Cl)cc3Cl)c(I)c2CN1C(=O)/C=C/c1ccc2c(c1)OCO2", "pIC50": 4.22}
{"molecule": "CC(=O)N[C@@H](Cc1c[nH]c2ccccc12)C(=O)N[C@@H](Cc1ccc(OCc2ccccc2)cc1)c1nc(/C=C(C)/C=C(/C)C(=O)OCC(=O)O)cs1", "pIC50": 5.27}
{"molecule": "O=C(O)[C@@H]1Cc2cc(I)c(OCc3ccc(Cl)cc3Cl)c(I)c2CN1C(=O)/C(F)=C/c1ccccc1", "pIC50": 4.44}
{"molecule": "O=C(O)[C@@H]1Cc2cc(I)c(OCc3ccccc3F)c(I)c2CN1C(=O)c1cccnc1Cl", "pIC50": 4.05}
{"molecule": "CC(C)CCC[C@@H](C)[C@H]1CCC2C(C)(COP(=O)(O)O)CCC[C@@]21C (single isomer, unassigned)", "pIC50": 5.52}
{"molecule": "CO[C@H]1O[C@H](Cn2cc(CO[C@@H](C)[C@H](NC(=O)OC(C)(C)C)C(=O)O)nn2)[C@@H](OCc2ccccc2)[C@H](OCc2ccccc2)[C@@H]1OCc1ccccc1", "pIC50": 4.91}
{"molecule": "O=C(O)[C@@H]1Cc2cc(I)c(OCc3ccc(C(F)(F)F)cc3)c(I)c2CN1C(=O)/C=C/c1ccccc1F", "pIC50": 4.26}

The measured pIC50 associated with O=C(O)CCCCN1C(=O)/C(=C/c2cn(-c3ccccc3)nc2-c2ccc(Cl)cc2Cl)SC1=S reads 4.55

The measured pIC50 associated with O=C(O)[C@@H]1Cc2cc(I)c(OCc3ccc(C(F)(F)F)cc3)c(I)c2CN1C(=O)/C=C/c1ccc([N+](=O)[O-])cc1 reads 4.26

The measured pIC50 associated with CCCCCCCCCCCCCCCC(NCc1ccc(Cl)cc1)=C1C(=O)OC(CO)C1=O (mixture of isomers) reads 5.26

The measured pIC50 associated with Nc1cccc(Nc2nc3ccccc3nc2NS(=O)(=O)c2ccc(Cl)cc2)c1 reads 4.95

The measured pIC50 associated with O=C(O)[C@@H]1Cc2cc(I)c(OCc3c(Cl)cccc3Cl)c(I)c2CN1C(=O)/C=C/c1cccc(Cl)c1 reads 4.70

The measured pIC50 associated with Cn1c(SCC(=O)c2ccc([N+](=O)[O-])cc2)nnc1-c1cccc(NC(=O)c2ccccc2F)c1 reads 5.27

The measured pIC50 associated with O=C(CCc1c[nH]c2ccccc12)N[C@@H](Cc1ccc(OCc2ccccc2)cc1)c1nc(C(=O)Nc2cc(C(=O)O)ccc2F)c(-c2ccccc2)s1 reads 5.01

The measured pIC50 associated with CCOC(=O)/C(C)=C\C(C)=C\c1csc([C@H](Cc2ccc(OCc3ccccc3)cc2)NC(=O)C2CCCCC2)n1 reads 5.41

The measured pIC50 associated with O=C(Cc1cccc2ccccc12)Nc1nnc(-c2ccc(Oc3ccc([N+](=O)[O-])cc3)cc2)s1 reads 5.29

The measured pIC50 associated with O=C(O)[C@@H]1Cc2cc(I)c(OCc3c(Cl)cccc3Cl)c(I)c2CN1C(=O)/C=C/c1cccc(C(F)(F)F)c1 reads 4.46

The measured pIC50 associated with C/C(=C/C(C)=C/c1csc([C@H](Cc2ccc(OCc3ccccc3)cc2)NC(=O)Cc2c[nH]c3ccccc23)n1)C(=O)OCC(=O)O reads 5.31

The measured pIC50 associated with C/C1=C/CC[C@]2(C)[C@@H]([C@H](C)CCCC(C)C)CC[C@H]2c2ccc(cc2C=O)C[C@@H](O)CC1 reads 4.96

The measured pIC50 associated with CC(=O)CC(=O)O[C@H]1CC/C(C)=C\CC[C@]2(C)[C@@H]([C@H](C)CCCC(C)C)CC[C@H]2c2ccc(cc2C(=O)O)C1 reads 5.12

The measured pIC50 associated with CO[C@H]1O[C@H](Cn2cc(CO[C@@H](C)[C@H](NC(=O)OC(C)(C)C)C(=O)O)nn2)[C@H](OCc2ccccc2)[C@H](OCc2ccccc2)[C@H]1OCc1ccccc1 reads 4.51

The measured pIC50 associated with O=C(O)[C@@H]1Cc2cc(I)c(OCc3ccc(Cl)cc3Cl)c(I)c2CN1C(=O)CCc1ccccc1 reads 4.30
